Value source: patent US6455550B1

# TARGET: cell-surface VLA-4 (α4β1 integrin) on Ramos cells binding to immobilized VCAM-1 (Homo sapiens, UniProt P05556+P13612)
# Construct: Ramos cells bearing cell-surface VLA-4; endogenous in cells; host or cells: Ramos cells (VLA-4); VCAM-1 purified from CHO cell culture media
# Sequence (P13612 34-1032): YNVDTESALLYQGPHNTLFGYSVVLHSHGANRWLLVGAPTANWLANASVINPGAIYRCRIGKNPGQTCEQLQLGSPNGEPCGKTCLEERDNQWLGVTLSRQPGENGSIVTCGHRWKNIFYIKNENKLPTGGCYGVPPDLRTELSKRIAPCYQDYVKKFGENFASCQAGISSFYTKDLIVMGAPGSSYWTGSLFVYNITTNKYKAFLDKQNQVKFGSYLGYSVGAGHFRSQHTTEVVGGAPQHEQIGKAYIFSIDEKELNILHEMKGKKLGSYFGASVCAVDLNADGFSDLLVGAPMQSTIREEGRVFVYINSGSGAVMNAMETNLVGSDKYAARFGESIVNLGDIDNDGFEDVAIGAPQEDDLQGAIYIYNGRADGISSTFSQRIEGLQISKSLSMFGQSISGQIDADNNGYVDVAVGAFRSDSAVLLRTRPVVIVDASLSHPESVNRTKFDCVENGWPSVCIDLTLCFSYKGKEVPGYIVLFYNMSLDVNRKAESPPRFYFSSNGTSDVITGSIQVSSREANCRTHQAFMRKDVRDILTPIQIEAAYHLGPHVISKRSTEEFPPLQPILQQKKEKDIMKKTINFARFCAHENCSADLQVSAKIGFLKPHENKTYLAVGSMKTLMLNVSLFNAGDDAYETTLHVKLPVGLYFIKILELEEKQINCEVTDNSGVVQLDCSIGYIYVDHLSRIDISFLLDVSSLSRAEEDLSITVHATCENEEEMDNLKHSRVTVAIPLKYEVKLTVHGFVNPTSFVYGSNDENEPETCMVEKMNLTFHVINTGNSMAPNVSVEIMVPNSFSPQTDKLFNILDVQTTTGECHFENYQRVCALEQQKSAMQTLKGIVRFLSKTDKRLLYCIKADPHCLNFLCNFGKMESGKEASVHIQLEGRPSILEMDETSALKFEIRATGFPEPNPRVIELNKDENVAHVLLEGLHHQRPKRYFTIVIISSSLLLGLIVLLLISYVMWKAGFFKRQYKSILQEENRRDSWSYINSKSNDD
# Sequence (P05556 21-798): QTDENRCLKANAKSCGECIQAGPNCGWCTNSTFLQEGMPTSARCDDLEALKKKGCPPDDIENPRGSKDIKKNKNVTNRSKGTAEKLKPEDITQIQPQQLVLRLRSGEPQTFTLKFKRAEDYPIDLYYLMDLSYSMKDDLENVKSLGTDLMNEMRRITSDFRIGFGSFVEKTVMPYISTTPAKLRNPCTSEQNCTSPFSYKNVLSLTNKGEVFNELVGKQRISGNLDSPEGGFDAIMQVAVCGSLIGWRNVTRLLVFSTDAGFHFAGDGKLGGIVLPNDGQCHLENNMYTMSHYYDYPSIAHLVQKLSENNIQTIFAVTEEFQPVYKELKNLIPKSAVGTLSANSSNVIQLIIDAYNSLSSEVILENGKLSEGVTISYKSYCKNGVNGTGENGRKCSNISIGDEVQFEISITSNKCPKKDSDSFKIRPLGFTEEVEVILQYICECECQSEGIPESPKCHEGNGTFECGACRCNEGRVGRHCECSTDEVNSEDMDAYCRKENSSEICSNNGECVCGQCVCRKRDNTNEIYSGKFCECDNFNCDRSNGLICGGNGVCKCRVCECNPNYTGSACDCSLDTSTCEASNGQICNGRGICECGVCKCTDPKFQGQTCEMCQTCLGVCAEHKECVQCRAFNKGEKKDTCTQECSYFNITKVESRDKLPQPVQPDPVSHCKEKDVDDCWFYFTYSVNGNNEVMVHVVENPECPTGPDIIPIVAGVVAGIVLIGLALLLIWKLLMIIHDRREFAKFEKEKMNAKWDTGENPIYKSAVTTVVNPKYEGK
# EXPERIMENT DESCRIPTION: Ramos (VLA-4)/VCAM-1 Cell-Based Screening Assay (cell adhesion)
# TEST CONDITIONS: IC50 in Ramos Cell Based Assay (nM), Calcein-AM labeled Ramos cells, VCAM-1 coated plates, 45 min at room temperature
QUANTITY MEASURED: IC50 (nM)

| COMPOUND | READOUT VALUE |
| --- | --- |
| [N-]=[N+]=NCCC1(C(=O)N[C@@H](Cc2ccc(NC(=O)c3c(Cl)cccc3Cl)cc2)C(=O)O)CCCC1 | 47 |
| CSCCCCC1(C(=O)N[C@@H](Cc2ccc(NC(=O)c3c(Cl)cccc3Cl)cc2)C(=O)O)CCCC1 | 94 |
| C/N=C(\S)NCCC1(C(=O)N[C@@H](Cc2ccc(NC(=O)c3c(Cl)cccc3Cl)cc2)C(=O)O)CCCC1 | 22 |
| CC(=O)NCCCCC1(C(=O)N[C@@H](Cc2ccc(NC(=O)c3c(Cl)cccc3Cl)cc2)C(=O)O)CCCC1 | 129 |
| CS(=O)(=O)CCC1(C(=O)N[C@@H](Cc2ccc(NC(=O)c3c(Cl)cccc3Cl)cc2)C(=O)O)CCCC1 | 75 |
| NCCC1(C(=O)N[C@@H](Cc2ccc(NC(=O)c3c(Cl)cccc3Cl)cc2)C(=O)O)CCCC1 | 228 |
| N#CCC1(C(=O)N[C@@H](Cc2ccc(NC(=O)c3c(Cl)cccc3Cl)cc2)C(=O)O)CCCC1 | 96 |
| NC(=O)NCCC1(C(=O)N[C@@H](Cc2ccc(NC(=O)c3c(Cl)cccc3Cl)cc2)C(=O)O)CCCC1 | 36 |
| O=C(Nc1ccc(C[C@H](NC(=O)C2(CCN3CCOCC3)CCCC2)C(=O)O)cc1)c1c(Cl)cccc1Cl | 151 |
| C[S+]([O-])CCC1(C(=O)N[C@@H](Cc2ccc(NC(=O)c3c(Cl)cccc3Cl)cc2)C(=O)O)CCCC1 (stereo partly drawn) | 25 |
| CSCCC1(C(=O)N[C@@H](Cc2ccc(NC(=O)c3c(Cl)cccc3Cl)cc2)C(=O)O)CCCC1 | 62 |
| CC(C)(C)C(=O)NCCC1(C(=O)N[C@@H](Cc2ccc(NC(=O)c3c(Cl)cccc3Cl)cc2)C(=O)O)CCCC1 | 28 |
| COc1ccc(C(=O)NCCC2(C(=O)N[C@@H](Cc3ccc(NC(=O)c4c(Cl)cccc4Cl)cc3)C(=O)O)CCCC2)cc1 | 635 |
| O=C(Nc1ccc(C[C@H](NC(=O)C2(CCCCO)CCCC2)C(=O)O)cc1)c1c(Cl)cccc1Cl | 27 |
| O=C(NCCC1(C(=O)N[C@@H](Cc2ccc(NC(=O)c3c(Cl)cccc3Cl)cc2)C(=O)O)CCCC1)c1cccc(C(F)(F)F)c1 | 1030 |
| CCCCC1(C(=O)N[C@@H](Cc2ccc(NC(=O)c3c(Cl)cccc3Cl)cc2)C(=O)O)CCCC1 | 150 |
| Cn1nnnc1-c1ccc(CC2(C(=O)N[C@@H](Cc3ccc(NC(=O)c4c(Cl)cccc4Cl)cc3)C(=O)O)CCC2)cc1 | 27 |
| N#CCCCCC1(C(=O)N[C@@H](Cc2ccc(NC(=O)c3c(Cl)cccc3Cl)cc2)C(=O)O)CCCC1 | 39 |
